# Tested On: PPARγ LBD protein (Homo sapiens, UniProt P37231)
# Construct: 1 nM 6xHis-PPAR LBD protein
# Test Name: LanthaScreen TR-FRET competitive ligand displacement (PPARγ protein binding) assay
# Study Conditions: TR-FRET signal at 0.000256 µM
# Procedure: Based on time-resolved fluorescence resonance energy transfer (TR-FRET), the nuclear receptor competitive binding assay was utilized to identify PPARγ ligands. […] We performed a time-resolved fluorescence resonance energy transfer (TR-FRET) assay using a black flat bottom 384-well plate and a buffer containing 20 mM potassium phosphate (pH 7.4), 0.5 mM EDTA, 50 mM KCl, and 0.01% Tween-20, 5 mM TCEP. […]
Experimental Readout: Raw Data (RLU)
Express it in RLU; write the number only.

# example entries with known answers
[[record]]
smiles_string = "C=CCc1ccc(OCC(=O)Nc2ccc(Cl)cc2)c(OC)c1"
units_label = "RLU"
endpoint_result = 1.896

[[record]]
smiles_string = "C=CCc1ccc(OCC(=O)Nc2ccc(C)cc2)c(OC)c1"
units_label = "RLU"
endpoint_result = 2.10

[[record]]
smiles_string = "C=CCc1ccc(OCC(=O)Nc2cccc(C)c2)c(OC)c1"
units_label = "RLU"
endpoint_result = 1.95


Q. Entry `C=CCc1ccc(OCC(=O)Nc2ccc(OC)cc2)c(OC)c1` has what Raw Data (RLU)?
A. 1.990

* * *

# Tested On: PPARγ LBD protein (Homo sapiens)
# Construct: 1 nM 6xHis-PPAR LBD protein
# Sequence (P37231 238-503 limits assumed): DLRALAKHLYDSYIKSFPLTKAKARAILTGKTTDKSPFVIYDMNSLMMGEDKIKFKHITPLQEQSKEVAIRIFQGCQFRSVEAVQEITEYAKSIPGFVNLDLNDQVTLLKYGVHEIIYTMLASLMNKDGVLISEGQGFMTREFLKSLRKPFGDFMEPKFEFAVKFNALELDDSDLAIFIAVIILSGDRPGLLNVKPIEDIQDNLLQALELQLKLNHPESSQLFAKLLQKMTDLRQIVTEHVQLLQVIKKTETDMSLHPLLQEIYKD
# Test Name: LanthaScreen TR-FRET competitive ligand displacement (PPARγ protein binding) assay
# Study Conditions: TR-FRET signal at 100 µM
Experimental Readout: Raw Data (RLU)
Express it in RLU; write the number only.

[[record]]
compound = "C=CCc1ccc(OCC(=O)Nc2ccc(Cl)cc2)c(OC)c1 [Compound 1C]"
tested_on = "PPARγ LBD protein (Homo sapiens)"
endpoint_result = 0.951


Q. Request - read-out Raw Data (RLU) | tested on PPARγ LBD protein (Homo sapiens) | compound C=CCc1ccc(OCC(=O)Nc2ccc(C)cc2)c(OC)c1 [Compound 1A]
A. 0.54

Q. Also C=CCc1ccc(OCC(=O)Nc2cccc(C)c2)c(OC)c1 [Compound 1D] ?
A. 1.40

Q. Also C=CCc1ccc(OCC(=O)Nc2ccc(OC)cc2)c(OC)c1 [Compound 1B] ?
A. 0.534

* * *

Reported inhibition at 6.25 µM values follow for various compounds
# Tested On: egg albumin (Gallus gallus, UniProt P01012)
# Sequence (P01012 2-386): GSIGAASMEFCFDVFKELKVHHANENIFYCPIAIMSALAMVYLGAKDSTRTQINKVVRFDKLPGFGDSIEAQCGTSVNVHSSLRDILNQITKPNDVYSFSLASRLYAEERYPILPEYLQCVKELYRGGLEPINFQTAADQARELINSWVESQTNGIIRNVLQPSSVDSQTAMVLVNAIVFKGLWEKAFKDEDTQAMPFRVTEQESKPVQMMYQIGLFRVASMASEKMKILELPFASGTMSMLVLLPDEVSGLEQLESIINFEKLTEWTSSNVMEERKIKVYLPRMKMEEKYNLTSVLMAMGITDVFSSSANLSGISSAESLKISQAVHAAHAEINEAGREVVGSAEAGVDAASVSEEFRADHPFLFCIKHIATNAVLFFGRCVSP
# Test Name: Albumin denaturation assay (in vitro anti-inflammatory activity)
# Parameters: species or system hen
# Study Conditions: 6.25 μM; means ± SD, n = 3; read-out: percentage inhibition of albumin denaturation
# Method: In this assay egg albumin is used as protein. Protein denaturation is achieved by keeping the reaction mixture at 70 °C in a water bath for 10 minutes. The reaction mixture containing 0.2 ml of egg albumin (from fresh hen's eggs), 2.8 ml of phosphate-buffered saline (pH 6.4), and were mixed with 2 ml of the synthesized compounds in varying concentrations. […] After cooling the samples, the turbidity was measured spectrophotometrically at 660 nm. […]
Express it in %; write the number only.

# example entries with known answers
[[record]]
compound = "C=CCc1ccc(OCC(=O)Nc2ccc(Cl)cc2)c(OC)c1 [Compound 1C]"
endpoint_result = 5.23

[[record]]
compound = "C=CCc1ccc(OCC(=O)Nc2ccc(OC)cc2)c(OC)c1 [Compound 1B]"
endpoint_result = 1.71

[[record]]
compound = "C=CCc1ccc(OCC(=O)Nc2cccc(C)c2)c(OC)c1 [Compound 1D]"
endpoint_result = 2.66


Q. Request - read-out inhibition at 6.25 µM | tested on egg albumin (Gallus gallus, UniProt P01012) | compound O=C(O)Cc1ccccc1Nc1c(Cl)cccc1Cl [Standard diclofenac, Diclofenac sodium, reference compound]
A. 10

Q. Also C=CCc1ccc(OCC(=O)Nc2ccc(C)cc2)c(OC)c1 [Compound 1A] ?
A. 2.42

* * *

Reported inhibition at 200 µM values follow for various molecules
# Tested On: egg albumin (Gallus gallus, UniProt P01012)
# Test Name: Albumin denaturation assay (in vitro anti-inflammatory activity)
# Design: species or system hen
# Study Conditions: 200 μM; means ± SD, n = 3; read-out: percentage inhibition of albumin denaturation
Express it in %; write the number only.

[[record]]
molecule = "O=C(O)Cc1ccccc1Nc1c(Cl)cccc1Cl [Standard diclofenac, Diclofenac sodium, reference compound]"
experimental_readout = "inhibition at 200 µM"
units_label = "%"
endpoint_result = 60.9


// next entry
Q. Entry C=CCc1ccc(OCC(=O)Nc2ccc(OC)cc2)c(OC)c1 [Compound 1B] has what inhibition at 200 µM?
A. 16.4

* * *

# PPARγ LBD protein (Homo sapiens, UniProt P37231): pIC50 values follow
Interpret pIC50 as the negative base-10 log of the concentration measured in mol/L.

# example entries with known answers
[[record]]
smiles_string = "C=CCc1ccc(OCC(=O)Nc2ccc(Cl)cc2)c(OC)c1"
endpoint_result = 4.97

[[record]]
smiles_string = "C=CCc1ccc(OCC(=O)Nc2ccc(C)cc2)c(OC)c1"
endpoint_result = 4.87


Q. Entry `C=CCc1ccc(OCC(=O)Nc2ccc(OC)cc2)c(OC)c1` has what pIC50?
A. 4.38

Q. Also `C=CCc1ccc(OCC(=O)Nc2cccc(C)c2)c(OC)c1` ?
A. 4.82

* * *

# Tested On: PPARγ LBD protein (Homo sapiens, UniProt P37231)
# Construct: 1 nM 6xHis-PPAR LBD protein
# Test Name: LanthaScreen TR-FRET competitive ligand displacement (PPARγ protein binding) assay
# Study Conditions: TR-FRET signal at 0.032 µM
Experimental Readout: Raw Data (RLU)
The number alone won't do; follow it with the unit.

# example entries with known answers
[[record]]
smiles_string = "C=CCc1ccc(OCC(=O)Nc2ccc(Cl)cc2)c(OC)c1"
tested_on = "PPARγ LBD protein (Homo sapiens, UniProt P37231)"
endpoint_result = "1.989 RLU"

[[record]]
smiles_string = "C=CCc1ccc(OCC(=O)Nc2cccc(C)c2)c(OC)c1"
tested_on = "PPARγ LBD protein (Homo sapiens, UniProt P37231)"
endpoint_result = "1.93 RLU"


Q. Entry `C=CCc1ccc(OCC(=O)Nc2ccc(C)cc2)c(OC)c1` has what Raw Data (RLU)?
A. 2.00 RLU

Q. Also `C=CCc1ccc(OCC(=O)Nc2ccc(OC)cc2)c(OC)c1` ?
A. 1.913 RLU

* * *

# Tested On: PPARγ LBD protein (Homo sapiens, UniProt P37231)
# Construct: 1 nM 6xHis-PPAR LBD protein
# Sequence (P37231 238-503 limits assumed): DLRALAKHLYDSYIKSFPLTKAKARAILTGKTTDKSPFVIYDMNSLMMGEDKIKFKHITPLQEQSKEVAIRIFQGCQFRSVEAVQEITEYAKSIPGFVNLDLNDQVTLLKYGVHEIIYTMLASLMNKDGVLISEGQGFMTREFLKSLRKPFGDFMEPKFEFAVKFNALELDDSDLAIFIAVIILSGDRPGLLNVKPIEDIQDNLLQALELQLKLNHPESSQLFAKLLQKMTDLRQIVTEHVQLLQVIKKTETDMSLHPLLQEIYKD
# Test Name: LanthaScreen TR-FRET competitive ligand displacement (PPARγ protein binding) assay
# Study Conditions: TR-FRET signal at 100 µM
Reported Raw Data - Background (RLU) values follow for various compounds
Express it in RLU; write the number only.

# example entries with known answers
[[record]]
smiles_string = "C=CCc1ccc(OCC(=O)Nc2cccc(C)c2)c(OC)c1"
tested_on = "PPARγ LBD protein (Homo sapiens, UniProt P37231)"
endpoint_result = 1.17

[[record]]
smiles_string = "C=CCc1ccc(OCC(=O)Nc2ccc(Cl)cc2)c(OC)c1"
tested_on = "PPARγ LBD protein (Homo sapiens, UniProt P37231)"
endpoint_result = 0.716

[[record]]
smiles_string = "C=CCc1ccc(OCC(=O)Nc2ccc(C)cc2)c(OC)c1"
tested_on = "PPARγ LBD protein (Homo sapiens, UniProt P37231)"
endpoint_result = 0.3006


// next entry
Q. Entry `C=CCc1ccc(OCC(=O)Nc2ccc(OC)cc2)c(OC)c1` has what Raw Data - Background (RLU)?
A. 0.2989

* * *

# Tested On: egg albumin (Gallus gallus)
# Test Name: Albumin denaturation assay (in vitro anti-inflammatory activity)
# Parameters: species or system hen
# Study Conditions: 400 μM; means ± SD, n = 3; read-out: percentage inhibition of albumin denaturation
Would you please tag the item fulfilled when its inhibition at 400 µM is 40% or above, and not fulfilled when it is below?

[[record]]
compound = "C=CCc1ccc(OCC(=O)Nc2ccc(OC)cc2)c(OC)c1 [Compound 1B]"
classification = "not fulfilled"

[[record]]
compound = "O=C(O)Cc1ccccc1Nc1c(Cl)cccc1Cl [Standard diclofenac, Diclofenac sodium, reference compound]"
classification = "fulfilled"

[[record]]
compound = "C=CCc1ccc(OCC(=O)Nc2cccc(C)c2)c(OC)c1 [Compound 1D]"
classification = "not fulfilled"

[[record]]
compound = "C=CCc1ccc(OCC(=O)Nc2ccc(Cl)cc2)c(OC)c1 [Compound 1C]"
classification = "fulfilled"


Kindly review the next compound as well.
Q. Could you verify whether the entry C=CCc1ccc(OCC(=O)Nc2ccc(C)cc2)c(OC)c1 [Compound 1A] shows inhibition at 400 µM of no less than 40%?
A. not fulfilled
